Target: human Src enzyme (Homo sapiens)
Construct: purchased Carna Biosciences, Inc. 08-173
Sequence (P12931 whole entry): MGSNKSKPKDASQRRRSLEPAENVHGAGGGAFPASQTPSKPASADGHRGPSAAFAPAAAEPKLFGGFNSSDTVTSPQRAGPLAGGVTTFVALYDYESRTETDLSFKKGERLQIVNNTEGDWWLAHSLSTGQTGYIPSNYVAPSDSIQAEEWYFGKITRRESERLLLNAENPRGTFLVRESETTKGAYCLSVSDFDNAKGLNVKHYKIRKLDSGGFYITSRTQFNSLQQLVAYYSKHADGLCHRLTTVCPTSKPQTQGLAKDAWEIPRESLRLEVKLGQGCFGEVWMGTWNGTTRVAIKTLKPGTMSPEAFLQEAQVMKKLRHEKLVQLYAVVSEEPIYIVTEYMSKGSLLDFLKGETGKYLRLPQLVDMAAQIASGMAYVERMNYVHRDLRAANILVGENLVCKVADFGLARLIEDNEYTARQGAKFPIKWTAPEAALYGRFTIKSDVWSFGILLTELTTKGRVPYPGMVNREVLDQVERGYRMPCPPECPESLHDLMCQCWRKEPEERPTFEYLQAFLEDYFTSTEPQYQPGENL
Protocol details: Src enzyme inhibitory activity (time-resolved fluorometry, biotinylated peptide phosphorylation)
Assay type: biochemical
Particulars: biotinylated peptide phosphorylation, read-out: SRC_IC50
# IC50 annotations
# value in nM; strip the unit string

Solved cases below.
> print(dat)
                                  structure  property.label  value.observed
1  Cc1cc(Oc2ccccc2F)cc(F)c1-n1ncc(C(=O)c2cc3cc(OCC(F)F)c(N4CCCS4(=O)=O)cc3[nH]2)c1N            IC50              16
2  Cc1cc(Oc2c(F)cccc2F)ncc1-n1ncc(C(=O)c2cc3cc(N4CCOCC4)c(N4CCCS4(=O)=O)cc3[nH]2)c1N            IC50              22
3  Cc1cc(Oc2c(F)cccc2F)ncc1-n1ncc(C(=O)c2cc3cc(F)c(NS(C)(=O)=O)cc3[nH]2)c1N            IC50              37
4  Cc1cc(Oc2ccccc2F)ncc1-n1ncc(C(=O)c2cc3cc(F)c(NS(=O)(=O)c4cccc(Cl)c4)cc3[nH]2)c1N            IC50            2400
5  Cc1cc(Oc2c(F)cccc2F)ncc1-n1ncc(C(=O)c2cc3cc(N4CCOCC4)c(NS(C)(=O)=O)cc3[nH]2)c1N            IC50              91

Q) Form field: reported IC50 of `Cc1cc(Oc2ccccc2F)cc(F)c1-n1ncc(C(=O)c2cc3cc(OCC(F)F)c(N4CCOCC4)cc3[nH]2)c1N`
A) 16

Q) Form field: reported IC50 of `Cc1cc2cc(C(=O)c3cnn(-c4ccc(Oc5cccc(F)c5F)cc4C)c3N)[nH]c2cc1NS(=O)(=O)N1CCOCC1`
A) 180

Q) Form field: reported IC50 of `Cc1cc(Oc2ccccc2F)ncc1-n1ncc(C(=O)c2cc3cc(F)c(NS(=O)(=O)NC4CCOCC4)cc3[nH]2)c1N`
A) 78

Q) Form field: reported IC50 of `Cc1cc2cc(C(=O)c3cnn(-c4cnc(Oc5c(F)cccc5F)cc4C)c3N)[nH]c2cc1N1CCOCC1`
A) 34

Q) Form field: reported IC50 of `Cc1cc(Oc2ccccc2F)ccc1-n1ncc(C(=O)c2cc3cc(OC(F)F)c(NC4CCN(S(C)(=O)=O)CC4)cc3[nH]2)c1N`
A) 34
